- Tested on: K562
- experimental details: Antiproliferative activity against human K562 cells assessed as reduction in cell viability incubated for 72 hrs by CCK-8 assay
- Format: functional, cell-based
- measurement parameters: K562, 72 h
measure name: pIC50
Units for pIC50: none; it is -log10 of a concentration expressed in mol/L.

Recorded results for 5 compounds are shown here.
test smiles	pIC50
C=CCOc1ccc(CNc2nc(N(C)c3ccc(OC)cc3)c3ccccc3n2)cc1	6.30
COc1ccc(CNC(=O)c2cc(F)ccc2N2CCOCC2)cc1O	7.80
COc1ccc(N(C)c2nc(NCc3ccc(O)cc3)nc3ccccc23)cc1	7.71
C#CC(C)(C)Oc1ccc(CNc2nc(N(C)c3ccc(OC)cc3)c3ccccc3n2)cc1	6.29
C=CCOc1cc(CNC(=O)c2cc(F)ccc2N2CCOCC2)ccc1OC	5.40

Request: Can you share its pIC50? I mean this compound: C#CCOc1ccc(CNc2nc(N(C)c3ccc(OC)cc3)c3ccccc3n2)cc1
Result: 6.33

Request: Can you share its pIC50? I mean this compound: C#CCOc1cc(CNC(=O)c2cc(F)ccc2N2CCOCC2)ccc1OC
Result: 5.96

Request: Can you share its pIC50? I mean this compound: C#CC(C)(C)Oc1cc(CNC(=O)c2cc(F)ccc2N2CCOCC2)ccc1OC
Result: 6.34

* * *

Readings of IC50 at 72 h for the listed compounds
- experimental details: Antiproliferative activity against human THLE-2 cells assessed as reduction in cell viability incubated for 72 hrs by CCK-8 assay
- Type: toxicity, cell-based

Recorded results for 4 compounds are shown here.
test smiles	IC50 at 72 h
C=CCOc1ccc(CNc2nc(N(C)c3ccc(OC)cc3)c3ccccc3n2)cc1	353 nM
C#CCOc1cc(CNC(=O)c2cc(F)ccc2N2CCOCC2)ccc1OC	1420 nM
COc1ccc(N(C)c2nc(NCc3ccc(O)cc3)nc3ccccc23)cc1	45.4 nM
COc1ccc(CNC(=O)c2cc(F)ccc2N2CCOCC2)cc1O	21.4 nM

Now take the following compound into account.
Request: Can you share its IC50 at 72 h? I mean this compound: C#CC(C)(C)Oc1ccc(CNc2nc(N(C)c3ccc(OC)cc3)c3ccccc3n2)cc1
Result: 516 nM

* * *

- experimental details: Select factor, ratio of test compound IC50 to 4-(((4-((4-methoxyphenyl)(methyl)amino)quinazolin-2-yl)amino)methyl)phenol IC50 for antiproliferative activity against human THLE-2 cells assessed as reduction in cell viability incubated for 72 hrs by CCK-8 assay
- Format: toxicity, cell-based
- measurement parameters: read-out: Ratio IC50
Readings of selectivity ratio at 72 h for the listed molecules
Give your answer as a number; write no unit.

Recorded results for 2 molecules are shown here.
test smiles	reported value
C#CCOc1ccc(CNc2nc(N(C)c3ccc(OC)cc3)c3ccccc3n2)cc1	15.5
C=CCOc1ccc(CNc2nc(N(C)c3ccc(OC)cc3)c3ccccc3n2)cc1	7.8

Now take the following molecule into account.
Request: Can you share its selectivity ratio at 72 h? I mean this molecule: C#CC(C)(C)Oc1ccc(CNc2nc(N(C)c3ccc(OC)cc3)c3ccccc3n2)cc1
Result: 11.4

* * *

Readings of IC50 at 72 h for the listed compounds
- experimental details: Antiproliferative activity against human THLE-2 cells assessed as reduction in cell viability incubated for 72 hrs by CCK-8 assay
- Format: toxicity, cell-based
Field format: number, assumed nM, no unit text.

Recorded results for 2 compounds are shown here.
test smiles	unit spec	reported value
C#CCOc1ccc(CNc2nc(N(C)c3ccc(OC)cc3)c3ccccc3n2)cc1	nM	703
C#CC(C)(C)Oc1cc(CNC(=O)c2cc(F)ccc2N2CCOCC2)ccc1OC	nM	1330

Now take the following compound into account.
Request: Can you share its IC50 at 72 h? I mean this compound: C=CCOc1cc(CNC(=O)c2cc(F)ccc2N2CCOCC2)ccc1OC
Result: 5470
